Measured Kd, listed per entry.
Biological target: T1, human CD33 protein (human, UniProt P20138 18-259)
T1 construct: extracellular domain; It is not tied to the protein used in the screen, so it is not used here; also called recombinant human CD33 protein; CD33 ECD proteins
T1 sequence (P20138 18-259): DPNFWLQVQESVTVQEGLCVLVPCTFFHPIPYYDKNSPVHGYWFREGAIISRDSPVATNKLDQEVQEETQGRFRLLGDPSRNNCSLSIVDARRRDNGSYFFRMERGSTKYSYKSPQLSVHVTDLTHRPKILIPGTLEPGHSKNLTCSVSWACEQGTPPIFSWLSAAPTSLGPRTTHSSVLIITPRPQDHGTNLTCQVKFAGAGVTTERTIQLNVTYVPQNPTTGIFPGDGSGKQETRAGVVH
Test: SPR (BIACORE T200), antibody fragment captured by affinity tag, 100 nM human CD33 flowed over, estimate from one concentration; column KD; no unit printed on the sheet
Write down the numeric answer in nM and omit the unit.

// solved cases for Kd follow
AS138521 (scFv, Format as for f1; also called anti-CD33 IgG1 AS138521; AS138521 scFv) scFv (VL-linker-VH): SSELTQPAAVSVSLGETARITCQGGNFGSYYATWYQQKPGQAPVLVIYANSNRPSGIPERFSGSSSGGTATLTISGAQAEDEADYYCQSYDNSANAVFGGGTHLTVLGGGGSGGGGSGGGGSEVQLVESGGGLVQPGGSLRLSCAASGSTFWSYYMSWVRQAPGKGLEWVSSIYSDGSYAYYADSVKGRFTISRDNAKNTVYLQMNSLKSEDTALYYCATAPTPDGGSWLWYNYWGQGTQVTVSS = 0.364
AS199757 (scFv, Format as for f1; also called anti-CD33 IgG1 AS199757; AS199757 scFv) scFv (VL-linker-VH): NFMLTQPPSVSGSPGQKFTISCTGSSNNIGDNYVNWYQHLPGTAPKLLIYSNNNRASGVPDRFSGSKSGSSASLTITGLQAEDEADYYCSSWDDSLSGFVFGGGTHLTVLGGGGSGGGGSGGGGSAVQLVESGGGLVQPGGSLRLTCAASGFTFDNYGMSWVRQAPGKGLEWVSAIMWNGGTTYYAEPMKGRFTISRDNAKNTVYLQMNSLKSEDTAVYYCARHGSSWYAMDYWGQGTQVTVSS = 1.5

Now consider a different binder.
Please fill in: Kd reported for AS188893 (scFv, Format as for f1; also called anti-CD33 IgG1 AS188893; AS188893 scFv) scFv (VL-linker-VH): SYELTQPSAVSVSLGQTARITCQGGNLGTSYVHWYQQKPGQAPVLVIYGDDSRPSGIPERFSGSSSGGTATLTISGAQAEDEADYYCQSYDSSSSVFGGGTHLTVLGGGGSGGGGSGGGGSQVQLQESGGGLVQPGGSLRLSCAASGFTFSNNWMYWVRQAPGKGLEWVSSIATGDGSTNSADSVKGRFTISRDNTKNMLYLQMNSLKSEDTALYYCAKGVNIDHDVGAGDYWGQGTQVTVSS = 0.064
